Data credit: ChEMBL document CHEMBL3865805

assay: Intrinsic clearance in rat liver microsomes at 1 uM after 60 mins in presence of NADPH by UPLC-MS analysis; type: ADME; conditions: read-out: CLH
recorded_metric: microsomal CLint at 1 µM (µL/min/mg)
Lab book: enter the figure in µL/min/mg, no units written.

Challenge: Request the reported microsomal CLint at 1 µM associated with N[C@@H](Cc1ccccc1)C(=O)N1CCN(c2nc(N3CCOCC3)nc(-n3c(C(F)F)nc4ccccc43)n2)CC1
Response given: 43

---

I'd be grateful if you could share measured pIC50 for these entries.
biological target: Phosphatidylinositol 4,5-bisphosphate 3-kinase catalytic subunit beta isoform (Homo sapiens, UniProt P42338); assay: Inhibition of PI3Kbeta (unknown origin) expressed in baculovirus-infected fall armyworm sf21 cells co-expressing p85 by kinase-glo luminescence assay
Sequence (P42338 whole entry, canonical isoform): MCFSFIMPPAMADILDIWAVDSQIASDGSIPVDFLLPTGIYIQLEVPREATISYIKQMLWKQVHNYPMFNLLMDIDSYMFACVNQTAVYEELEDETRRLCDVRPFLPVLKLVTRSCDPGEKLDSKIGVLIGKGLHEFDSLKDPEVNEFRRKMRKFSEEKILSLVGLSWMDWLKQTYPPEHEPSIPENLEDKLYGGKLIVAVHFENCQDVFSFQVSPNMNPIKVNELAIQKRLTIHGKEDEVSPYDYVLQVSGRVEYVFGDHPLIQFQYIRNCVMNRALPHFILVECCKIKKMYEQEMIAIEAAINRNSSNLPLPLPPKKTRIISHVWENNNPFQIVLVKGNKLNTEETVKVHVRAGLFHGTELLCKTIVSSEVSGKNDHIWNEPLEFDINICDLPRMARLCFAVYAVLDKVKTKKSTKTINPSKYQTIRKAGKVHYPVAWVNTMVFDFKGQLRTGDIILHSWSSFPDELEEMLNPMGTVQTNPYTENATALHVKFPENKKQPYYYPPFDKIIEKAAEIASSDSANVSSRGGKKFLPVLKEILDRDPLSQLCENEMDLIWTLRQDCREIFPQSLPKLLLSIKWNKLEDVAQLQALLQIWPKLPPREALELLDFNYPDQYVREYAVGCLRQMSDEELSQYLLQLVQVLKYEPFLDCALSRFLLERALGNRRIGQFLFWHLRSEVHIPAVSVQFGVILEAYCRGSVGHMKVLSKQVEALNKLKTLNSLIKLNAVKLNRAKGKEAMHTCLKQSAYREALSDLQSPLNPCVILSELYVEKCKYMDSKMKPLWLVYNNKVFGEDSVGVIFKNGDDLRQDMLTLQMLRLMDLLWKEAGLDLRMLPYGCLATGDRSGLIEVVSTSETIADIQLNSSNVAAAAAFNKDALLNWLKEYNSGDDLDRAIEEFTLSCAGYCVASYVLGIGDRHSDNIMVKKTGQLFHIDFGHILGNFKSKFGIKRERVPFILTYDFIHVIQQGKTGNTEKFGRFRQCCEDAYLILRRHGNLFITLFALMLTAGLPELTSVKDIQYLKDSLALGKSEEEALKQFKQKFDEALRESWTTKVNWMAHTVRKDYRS
Scale for pIC50: -log10 of concentration given in mol/L; no unit attached.

Challenge: Name the reported pIC50 value associated with the molecule NCC(=O)N1CCC(c2nc(N3CCOCC3)nc(-n3c(C(F)F)nc4ccccc43)n2)CC1
Response given: 6.44

Challenge: What value of measured pIC50 is listed for NCC(=O)NC1CCCN(c2nc(N3CCOCC3)nc(-n3c(C(F)F)nc4ccccc43)n2)C1 (stereo not given) ?
Response given: 5.92

Challenge: Would you kindly share the measured pIC50 for NCC(=O)NC1CCN(c2nc(N3CCOCC3)nc(-n3c(C(F)F)nc4ccccc43)n2)CC1 ?
Response given: 5.88

Challenge: Any idea what pIC50 was measured for NCC(=O)NCC1CCN(c2nc(N3CCOCC3)nc(-n3c(C(F)F)nc4ccccc43)n2)CC1 ?
Response given: 6.37

---

assay: Volume of distribution at steady state in Sprague-Dawley rat at 3 mg/kg, iv by LC-MS analysis; assay type: ADME, organism-based; settings: in vivo, read-out: Vdss
recorded_metric: Vd (L/kg)
Give the value, in units of L/kg, as a plain number.

Challenge: I am curious: what Vd value has been reported for N[C@@H](Cc1ccccc1)C(=O)N1CCN(c2nc(N3CCOCC3)nc(-n3c(C(F)F)nc4ccccc43)n2)CC1 ?
Response given: 8.6

---

assay: Distribution constant, logD of compound at pH 3; assay type: physicochemical; settings: buffer
recorded_metric: logD
Number only, no unit.

Challenge: Value lookup for logD; key = N[C@@H](Cc1ccccc1)C(=O)N1CCN(c2nc(N3CCOCC3)nc(-n3c(C(F)F)nc4ccccc43)n2)CC1
Response given: 3

---

assay: Drug excretion in iv dosed rat urine by LC-MS analysis; format: ADME, organism-based; conditions: read-out: Drug excretion
recorded_metric: dose excreted

Challenge: Look up dose excreted: N[C@@H](Cc1ccccc1)C(=O)N1CCN(c2nc(N3CCOCC3)nc(-n3c(C(F)F)nc4ccccc43)n2)CC1
Response given: < 0.1%

---

assay: Aqueous solubility of compound at pH 2 by turbidimetric solubility assay; format: physicochemical; conditions: buffer
recorded_metric: solubility kinetic

Challenge: Returns the measured solubility kinetic for the input molecule. Input: N[C@@H](Cc1ccccc1)C(=O)N1CCN(c2nc(N3CCOCC3)nc(-n3c(C(F)F)nc4ccccc43)n2)CC1
Response given: > 100 µg/mL

---

assay: Apparent oral bioavailability in Sprague-Dawley rat at 20 mg/kg administered via gavage by LC-MS analysis; format: ADME, organism-based; conditions: in vivo, read-out: Fapp
recorded_metric: bioavailability (%)
Give the quantity in %, number only.

Challenge: bioavailability for N[C@@H](Cc1ccccc1)C(=O)N1CCN(c2nc(N3CCOCC3)nc(-n3c(C(F)F)nc4ccccc43)n2)CC1 ?
Response given: 26
